Dear all, this message contains IC50 results, target or system Voltage-gated inwardly rectifying potassium channel KCNH2 (Homo sapiens, UniProt Q12809).
readout_kind: IC50

[
  {
    "chem_smiles": "CN(C)CCCOc1ccc(-c2cc3c(cc2F)ncc2c3n(C3CCOCC3)c(=O)n2C)cn1",
    "experimental_result": "> 33 µM"
  },
  {
    "chem_smiles": "Cn1c(=O)n(C2CCOCC2)c2c3cc(-c4ccc(OCCCN5CCCCC5)nc4)c(F)cc3ncc21",
    "experimental_result": "> 33 µM"
  },
  {
    "chem_smiles": "CO[C@H]1C[C@@H](n2c(=O)n(C)c3cnc4cc(F)c(-c5ccc(OCCCN(C)C)nc5)cc4c32)C1",
    "experimental_result": "> 33 µM"
  },
  {
    "chem_smiles": "COCc1ccc(-c2cc3c(cc2F)ncc2c3n([C@H]3CC[C@H](OC)CC3)c(=O)n2C)cn1",
    "experimental_result": "27 µM"
  },
  {
    "chem_smiles": "COCc1ccc(-c2ccc3ncc4c(c3c2)n(C2CCOCC2)c(=O)n4C)cn1",
    "experimental_result": "> 33 µM"
  },
  {
    "chem_smiles": "CO[C@H]1C[C@@H](n2c(=O)n(C)c3cnc4cc(F)c(-c5ccc(NCCN(C)C)nc5)cc4c32)C1",
    "experimental_result": "24 µM"
  },
  {
    "chem_smiles": "CO[C@H]1C[C@@H](n2c(=O)n(C)c3cnc4ccc(-c5ccc(OCCCN6CCC6)nc5)cc4c32)C1",
    "experimental_result": "> 33 µM"
  },
  {
    "chem_smiles": "CN(C)CCCOc1ccc(-c2ccc3ncc4c(c3c2)n(C2COC2)c(=O)n4C)cn1",
    "experimental_result": "> 33 µM"
  },
  {
    "chem_smiles": "CN(C)CCCOc1ccc(-c2ccc3ncc4c(c3c2)n([C@H]2CCCOC2)c(=O)n4C)cn1",
    "experimental_result": "27 µM"
  }
]

###

assay: in vitro; conditions: dog, MDCK-MDR1
Description: Efflux ratio of apparent permeability across basolateral to apical over apical to basolateral side in MDCK cells overexpressing MDR1
readout_kind: efflux ratio

[
  {
    "chem_smiles": "CO[C@H]1C[C@@H](n2c(=O)n(C)c3cnc4cc(F)c(-c5ccc(NCCN(C)C)nc5)cc4c32)C1",
    "experimental_result": 11
  },
  {
    "chem_smiles": "CO[C@H]1C[C@@H](n2c(=O)n(C)c3cnc4cc(F)c(-c5ccc(OCCN(C)C)nc5)cc4c32)C1",
    "experimental_result": 1.6
  },
  {
    "chem_smiles": "CCC(CC)CNc1c(C(N)=O)cnc2cc(F)c(-c3cnc(NCCN4CCCC4)nc3)cc12",
    "experimental_result": 28
  },
  {
    "chem_smiles": "COCc1ccc(-c2cc3c(cc2F)ncc2c3n([C@H]3C[C@H](OC)C3)c(=O)n2C)cn1",
    "experimental_result": 0.6
  },
  {
    "chem_smiles": "CO[C@H]1C[C@@H](n2c(=O)n(C)c3cnc4cc(F)c(-c5ccc(OCCCN(C)C)nc5F)cc4c32)C1",
    "experimental_result": 2.5
  },
  {
    "chem_smiles": "COCc1ccc(-c2cc3c(cc2F)ncc2c3n([C@H]3C[C@@H](OC)C3)c(=O)n2C)cn1",
    "experimental_result": 0.4
  },
  {
    "chem_smiles": "CO[C@H]1C[C@@H](n2c(=O)n(C)c3cnc4ccc(-c5ccc(OCCCN6CCCC6)nc5)cc4c32)C1",
    "experimental_result": 9.4
  },
  {
    "chem_smiles": "COCc1ccc(-c2cc3c(cc2F)ncc2c3n([C@H]3C[C@@H](O)C3)c(=O)n2C)cn1",
    "experimental_result": 2.6
  }
]

Value source: ChEMBL document CHEMBL4152224
